molecular target: maize endosperm AGPase, large subunit variant GGR (Q96G, D161G, A443R; numbering of SEQ ID NO: 20) (Zea mays, UniProt P55241+Q84PF5, A443R/D161G/Q96G); assay: Pi inhibition in the absence of 3-PGA, GGR; format: biochemical; settings: varied substrate G-1-P, read-out: Ki (Pi)
metric.name: pKi
By convention, pKi is the negative base-10 log of a molar concentration.

Q: What does the data say about its pKi? Entry: O=P(O)(O)O [Pi, phosphate]
Result: 1.28

* * *

Target: maize endosperm AGPase, large subunit variant GGR (Q96G, D161G, A443R; numbering of SEQ ID NO: 20) (Zea mays, UniProt P55241+Q84PF5, A443R/D161G/Q96G)
Sequence (P55241 46-516 A443R/D161G/Q96G): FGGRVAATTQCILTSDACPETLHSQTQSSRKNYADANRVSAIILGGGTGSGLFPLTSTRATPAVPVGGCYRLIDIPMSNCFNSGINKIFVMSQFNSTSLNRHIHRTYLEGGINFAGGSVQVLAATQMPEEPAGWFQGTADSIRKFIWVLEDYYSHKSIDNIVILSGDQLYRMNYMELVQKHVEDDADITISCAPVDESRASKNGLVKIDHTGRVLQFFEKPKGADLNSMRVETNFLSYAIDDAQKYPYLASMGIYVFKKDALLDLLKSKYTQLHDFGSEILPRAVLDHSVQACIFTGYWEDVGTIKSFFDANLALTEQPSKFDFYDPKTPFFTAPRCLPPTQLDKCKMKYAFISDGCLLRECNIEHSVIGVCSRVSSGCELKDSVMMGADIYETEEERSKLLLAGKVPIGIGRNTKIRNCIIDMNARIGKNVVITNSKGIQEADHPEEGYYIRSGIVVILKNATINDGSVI
Sequence (Q84PF5 1-474): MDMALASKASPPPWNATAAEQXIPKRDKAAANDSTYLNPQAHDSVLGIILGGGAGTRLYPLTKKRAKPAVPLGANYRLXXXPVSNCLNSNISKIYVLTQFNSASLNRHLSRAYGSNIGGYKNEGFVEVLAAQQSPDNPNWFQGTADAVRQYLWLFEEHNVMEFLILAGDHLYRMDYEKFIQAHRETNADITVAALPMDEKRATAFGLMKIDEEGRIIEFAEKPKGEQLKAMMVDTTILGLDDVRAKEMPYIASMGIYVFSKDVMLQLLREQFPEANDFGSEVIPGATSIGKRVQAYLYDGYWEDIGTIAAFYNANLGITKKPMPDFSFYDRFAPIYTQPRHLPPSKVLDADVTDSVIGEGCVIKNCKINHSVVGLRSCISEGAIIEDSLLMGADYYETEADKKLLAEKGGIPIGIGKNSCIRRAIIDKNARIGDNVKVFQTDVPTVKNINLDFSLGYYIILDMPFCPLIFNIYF
Test: Pi inhibition in the absence of 3-PGA, GGR
Type: biochemical
Settings: read-out: Ki for Pi with respect to both substrates
pKi: −log10 of the molar value.
metric.name: pKi

Q: What does the data say about its pKi? Entry: O=P(O)(O)O [Pi, phosphate]
Result: 1.00 to 1.30

* * *

biological target: maize endosperm AGPase, large subunit variant GGR (Q96G, D161G, A443R; numbering of SEQ ID NO: 20) (Zea mays, UniProt P55241+Q84PF5, A443R/D161G/Q96G); experiment: Pi inhibition in the presence of 3-PGA, GGR; format: biochemical; details: in the presence of 3-PGA, read-out: Ki for Pi
metric.name: Ki

Q: What does the data say about its Ki? Entry: O=P(O)(O)O [Pi, phosphate]
Result: 10 to 20 mM

* * *

target: maize endosperm AGPase, large subunit variant GGR (Q96G, D161G, A443R; numbering of SEQ ID NO: 20) (Zea mays, UniProt P55241+Q84PF5, A443R/D161G/Q96G); test: Pi inhibition in the presence of 3-PGA, GGR; assay type: biochemical; conditions: presence of 3-PGA, varied substrate ATP, L-MT, read-out: Ki (Pi)
metric.name: pKi
By convention, pKi is the negative base-10 log of a molar concentration.

Q: What does the data say about its pKi? Entry: O=P(O)(O)O [Pi, phosphate]
Result: 1.97
